Entry source: paper PMC11091220

# TEST PROTOCOL: Mouse pharmacokinetics, i.v./oral and enabling formulations
# Format: in vivo
# DETAILS: mouse, plasma, iv; 0.5 mg/kg i.v.; read-out: mouse in vivo clearance
MEASUREMENT KIND: clearance
Answer format: value, then unit.

response.value for Cc1ncsc1-c1ccc(CNC(=O)[C@@H]2C[C@@H](O)CN2C(=O)[C@@H](NC(=O)COCCCOCCCOc2cc(F)c([C@@H]3c4[nH]c5ccccc5c4C[C@@H](C)N3CC(C)(C)F)c(F)c2)C(C)(C)C)cc1 (field: clearance) = 22 mL/min/kg

====

# TEST PROTOCOL: Mouse hepatocyte intrinsic clearance
# Assay type: in vitro ADME
# DETAILS: male, CD-1, mouse, hepatocytes, pH 7.4; read-out: muHeps (mouse hepatocytes) clearance
Kindly supply the reported hepatocyte CLint at 1 µM values for the records listed here.
Give bare numbers, in µL/min/1e6 cells.

STRUCTURE STRING: Cc1ncsc1-c1ccc(CNC(=O)[C@@H]2C[C@@H](O)CN2C(=O)[C@@H](NC(=O)COCCCOCCOc2cc(F)c([C@@H]3c4[nH]c5ccccc5c4C[C@@H](C)N3CC(C)(C)F)c(F)c2)C(C)(C)C)cc1
VALUE UNITS: µL/min/1e6 cells
hepatocyte CLint at 1 µM: 20

# batch: return hepatocyte CLint at 1 µM for each of the 3 compounds below
1. Cc1ncsc1-c1ccc(CNC(=O)[C@@H]2C[C@@H](O)CN2C(=O)[C@@H](NC(=O)COCCOc2cc(F)c([C@@H]3c4[nH]c5ccccc5c4C[C@@H](C)N3CC(C)(C)F)c(F)c2)C(C)(C)C)cc1
2. Cc1ncsc1-c1ccc(CNC(=O)[C@@H]2C[C@@H](O)CN2C(=O)[C@@H](NC(=O)COCCOCCOCCOc2cc(F)c([C@@H]3c4[nH]c5ccccc5c4C[C@@H](C)N3CC(C)(C)F)c(F)c2)C(C)(C)C)cc1
3. Cc1ncsc1-c1ccc(CNC(=O)[C@@H]2C[C@@H](O)CN2C(=O)[C@@H](NC(=O)COCCOCCOc2cc(F)c([C@@H]3c4[nH]c5ccccc5c4C[C@@H](C)N3CC(C)(C)F)c(F)c2)C(C)(C)C)cc1

stdout:
1. 22
2. 31
3. 40
